assay: reduced GFP signal of wild-type E. coli, primary screen, bacterial rRNA inhibitor project, GFP/RFP fluorescence, OD600, single point (AID 720706); conditions: E. coli WT GFP vs humanized-ribosome RFP mutants, 24 h; hits give low values, concentration not given here unless noted
Hit rate of the full screen: of about 350,000 compounds, about 5,500 (1.6%) were called active. Many of the other results were omitted from the sample, so actives are more common in it than they were.
observation.type: GFP signal change (wild-type ribosome)

Some entries whose results are on file:
[[record]]
smiles = "CCN(CC)c1ccc([N+](=O)[O-])c2cccnc12"
observation_type = "GFP signal change (wild-type ribosome)"
value_observed = "-44.1% (inactive)"

[[record]]
smiles = "COC(=O)[C@@H]1[C@@H](CO)[C@@H]2Cn3c(ccc(C4=CCCCC4)c3=O)[C@H]1N2CC1CC1"
observation_type = "GFP signal change (wild-type ribosome)"
value_observed = "-0.199% (inactive)"

[[record]]
smiles = "CN(c1ccccc1)c1ccc([N+](=O)[O-])c2nonc12"
observation_type = "GFP signal change (wild-type ribosome)"
value_observed = "-8.38% (active)"


Proceeding to the next molecule to report its GFP signal change (wild-type ribosome).
**Query** I am curious: what GFP signal change (wild-type ribosome) value has been reported for `Cc1ncoc1C(=O)NCC1=C(c2cccc3ccccc23)C[C@@H]2CC[C@H]1N2Cc1ccco1` ?
**Result** 5.41% (inactive)

Data origin, for the record: PubChem BioAssay AID720706
